- Tested on: VDR:RXRa (NR concentration 270 nM, RXRa partner concentration 90 nM)
- TEST_SUMMARY: PBM binding z-score (relative to random genomic background probes); higher = stronger binding; sequences stand for … in GC…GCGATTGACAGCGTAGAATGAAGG
PBM binding z-score reference
VALUE_TYPE: PBM binding z-score

QUERY_SEQUENCE	VALUE_TYPE	MEASURED_VALUE
CTATGTAGGTTAAGGGGGTTATTCAGTTTGAAAG	PBM binding z-score	5.71
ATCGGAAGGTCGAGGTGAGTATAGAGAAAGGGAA	PBM binding z-score	1.31
TCGAGTAGGTTACGGAGGCATTCAGGGATGAAGA	PBM binding z-score	0.176
GCTTCCGGGTCAAAGGTTATAGCATGAATAGAAT	PBM binding z-score	5.69
CCGAGTACGTTACGAGGGGGCATTCAGTGCGAAT	PBM binding z-score	4.15
TCGACTAGGTTACGGGGGCATTCAGGGATGAAGA	PBM binding z-score	4.04
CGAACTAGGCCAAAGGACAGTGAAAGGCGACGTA	PBM binding z-score	-0.722
AGTCGGAGGACAAAGGTCAGAGCTACGCCAGTGA	PBM binding z-score	3.28
ATATGTAGGTTACATCCGGGTCTTTCAGGCTATG	PBM binding z-score	1.06
CGAACTAGGTCTCCAGGACAGTGAAGAGGTTGGA	PBM binding z-score	-0.586
ACTCGGAGGACAAAGGTGAGAGCTACGCCAGTGA	PBM binding z-score	0.122
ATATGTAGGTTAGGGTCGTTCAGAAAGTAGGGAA	PBM binding z-score	2.57
CGTCCAAGGTCAATGCAAGGTCAGTGAAAGCATT	PBM binding z-score	6.14
CTATGTAGGTAAAGGGGGTCATTCAGTTTGAAAG	PBM binding z-score	6.95
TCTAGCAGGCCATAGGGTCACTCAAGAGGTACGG	PBM binding z-score	2.62
CCGAGTAGGTTACGAGGGGGCTTTCAGTGCGAAT	PBM binding z-score	2.13
ATCTCTAGGTAAAGTTCAGCGAAAGATCGATAGA	PBM binding z-score	1.84
CCTTACGGGTAACTCCAGGTTATAGCATCGGAGT	PBM binding z-score	0.375
TAGCCTAGGTTATGCGGGCCAGTATAGTGTCGGC	PBM binding z-score	-0.0997
CCTAGCAGGCGAGGGTCACTCAAGCATTTCGCTT	PBM binding z-score	1.59
CGAACTAGGTCACCAGGACCGTGAAGAGGTTGGA	PBM binding z-score	2.4
CCTACTGGGTCATTCAGAGGTCATTGATCATATG	PBM binding z-score	6.25
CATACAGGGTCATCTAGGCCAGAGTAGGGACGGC	PBM binding z-score	5.26
ATCGAAAGGTCGAGTTGAGTATAGAGAAAGGGAA	PBM binding z-score	3.04
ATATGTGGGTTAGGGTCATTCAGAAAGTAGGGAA	PBM binding z-score	4.97
CCGAGTGGGTTACGAGGGGGCATTCAGTGCGAAT	PBM binding z-score	5.13
TCGAGTAGGTTACGGCGGCATTCAGGGATGAAGA	PBM binding z-score	-0.251
CGAACTACGTCAAAGGACAGTGAAAGGCGACGTA	PBM binding z-score	-0.443
TCGAGTAGGATACGGGGGCATTCAGGGATGAAGA	PBM binding z-score	2.49
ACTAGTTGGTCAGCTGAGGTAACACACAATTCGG	PBM binding z-score	0.448
CTCGAAAGGTCGTGCTCAGGTGAGTATGCCAAAC	PBM binding z-score	3.25
TAGCCTAGGTCAGATCGGGGCAGTATACGCTATA	PBM binding z-score	1.56
CAAACCAGGTCACGAAAGGTCAAAGTCGAATGAC	PBM binding z-score	7.16
CCTACTGTGCCATTCAGAGGTCATTGATCATATG	PBM binding z-score	4.25
CCTTACGGGTCACGGGGTTATAGCACGACGAGCG	PBM binding z-score	5.75
CGAACTAGGTCACCGGGACAGTGAAGAGGTTGGA	PBM binding z-score	2.52
TCTTGTAGATCAAAGCTTAAGAAAGCCGAAGCCT	PBM binding z-score	-0.115
CGAACTAGGTCACCAGGACATTGAAGAGGTTGGA	PBM binding z-score	2.31
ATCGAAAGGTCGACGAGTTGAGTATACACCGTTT	PBM binding z-score	6.08
CCTTACGGGTCACTGACAGCTTATAGCATTTGGA	PBM binding z-score	3.11
ATCGAAACGTCGTGAGGTGAGTATACAGAAAGGC	PBM binding z-score	-0.25
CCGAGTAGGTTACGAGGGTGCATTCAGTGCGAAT	PBM binding z-score	4.73
CGTCCAAGGTCAAAGGTCAGGGAAGAGATGACGG	PBM binding z-score	6.71
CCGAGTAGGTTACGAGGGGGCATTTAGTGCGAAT	PBM binding z-score	4.94
CGTCAAAGTTCATGGTAACGTAACAGAAAGCAGC	PBM binding z-score	4.33
CCTTACGGGTCAAGGTTATATCACGGGTGGTACG	PBM binding z-score	3.49
AATACAGGGTCCTCGTAGGCCAGAGTACGCACAG	PBM binding z-score	-0.154
CGACCTAGGTCACCAGGACAGTGAAGAGGTTGGA	PBM binding z-score	2.68
ACTAGTTGGTCACCTGAGGTCACACACAATTCGG	PBM binding z-score	5.23
TCGAGTAGGTTAGGGGGGCATTCAGGGATGAAGA	PBM binding z-score	3.91
AGTGAAAGTTCAGGACGAGGTAACGTAAAGCACG	PBM binding z-score	2.81

Each recorded value in this set is attributed to the supplement of paper PMC6555819.
